MEASUREMENT_LABEL: melting point

O=C(CN1CCCCC1)Nc1ccc2[nH]ncc2c1 | 189 to 190 °C
O=C(NC1CCCN(Cc2ccccc2)C1)c1ccc2[nH]ncc2c1 (stereo not shown) | 203 to 204 °C
Cc1c(O[C@H]2CCC[C@H](N)C2)ccc2[nH]ncc12 (relative stereo) | 156 to 160 °C
COc1ccc(CN[C@H]2CCC[C@@H](Oc3ccc4[nH]ncc4c3C)C2)cc1 (relative stereo) | 164 to 166 °C
CN1CCCC(NC(=O)c2ccc3[nH]ncc3c2)C1 (stereo not shown) | 228 to 229 °C

Report melting point for each item below.
1. Cl.Cl.c1ccc(CN2CCC(Nc3cccc4[nH]ncc34)CC2)cc1
2. CN(C)[C@H]1CCC[C@H](Oc2ccc3[nH]ncc3c2)C1 (relative stereo)
3. CC(C)N1CCC(Nc2ccc3[nH]ncc3c2)CC1
4. Cl.Cl.c1cc(NC2CCNCC2)c2cn[nH]c2c1
5. O=C(Nc1ccc2[nH]ncc2c1)C1CCOCC1
6. O=C(CC1CCN(Cc2ccccc2)CC1)Nc1ccc2[nH]ncc2c1
7. CC(=O)N1CCC(Oc2ccc3[nH]ncc3c2C)CC1
8. O=C(C=C1CCN(Cc2ccccc2)CC1)Nc1ccc2[nH]ncc2c1

1: 257 to 260 °C (dec.); 2: 134 to 135 °C; 3: 140 to 141 °C; 4: 270 to 271 °C; 5: 286 to 288 °C (dec.); 6: 195 to 197 °C; 7: 161 to 163 °C; 8: 169 to 172 °C

###

MEASUREMENT_LABEL: melting point

Examples from the recorded data:
CSc1c(O[C@H]2CC[C@@H](NC(=O)c3ccccc3)CC2)ccc2[nH]ncc12 | 146 to 148 °C
c1cc2[nH]ncc2cc1NCCC1CCNCC1 | 184 to 186 °C (dec.)
OC1CCC(Oc2ccc3[nH]ncc3c2)C1 (centres unmarked) | 147 to 148 °C
Cc1c(OC2CCCNC2)ccc2[nH]ncc12 (centres unmarked) | 183 to 185 °C
Cc1n[nH]c2ccc(NC3CCN(Cc4ccccc4)CC3)cc12 | 160 to 162 °C

Go through the items and report each one's melting point.
1. O=C(NC1CCCNC1)c1ccc2[nH]ncc2c1 (centres unmarked)
2. CN(c1ccc2[nH]ncc2c1)C1CCN(Cc2ccccc2)CC1

1. 265 to 266 °C
2. 152 to 154 °C

###

Give measured melting point for each item. Keep answers brief.

Reference set (2 entries):
O=C(NC1CCOCC1)c1ccc2[nH]ncc2c1 | 285 to 286 °C
Cn1ncc2cc(NC3CCN(Cc4ccccc4)CC3)ccc21 | 116 to 117 °C

Parameters: items (list). Returns: melting point for each item.
1. Cl.Cl.OCCN1C2CCC1CC(Nc1ccc3[nH]ncc3c1)C2 (stereo not drawn)
2. Cn1cc2cc(NC3CCNCC3)ccc2n1
3. O=C1c2ccccc2C(=O)N1[C@H]1CC[C@@H](Oc2ccc3[nH]ncc3c2)CC1
4. CN(CCCNc1ccc2[nH]ncc2c1)Cc1ccccc1
5. CS(=O)(=O)N1CCC(C(=O)Nc2ccc3[nH]ncc3c2)CC1
6. c1cc2[nH]ncc2cc1NCC1CCOCC1
7. Cc1c(OC2=CC=CNC=C2)ccc2[nH]ncc12

154 to 157 °C
144 to 147 °C
194 to 196 °C
112 to 114 °C
291 to 293 °C (dec.)
293 to 294 °C (dec.)
157 to 159 °C
